# Applied Conditions: 298.15 K; 101 kPa; Liquid; Capillary tube (Ostwald / Ubbelohde) method
Numbers after ± are expanded uncertainties.
Assay Endpoint: viscosity

INSERT INTO assay_data (compound, assay_endpoint, obs_value) VALUES
  ('c1ccccc1 [benzene]', 'viscosity', '0.6048 ± 0.013 mPa·s'),
  ('Cc1ccc(C)cc1 [1,4-dimethylbenzene]', 'viscosity', '0.6115 ± 0.013 mPa·s'),
  ('Cc1ccccc1C [1,2-dimethylbenzene]', 'viscosity', '0.7576 ± 0.016 mPa·s'),
  ('Cc1cc(C)cc(C)c1 [1,3,5-trimethylbenzene]', 'viscosity', '0.6592 ± 0.014 mPa·s'),
  ('Cc1cccc(C)c1 [1,3-dimethylbenzene]', 'viscosity', '0.584 ± 0.012 mPa·s'),
  ('Cc1ccccc1 [toluene]', 'viscosity', '0.5541 ± 0.012 mPa·s'),
  ('C1COCCO1 [1,4-dioxane]', 'viscosity', '1.195 ± 0.025 mPa·s');

---

# Applied Conditions: 318.15 K; 101 kPa; Liquid; Frequency=3 MHz; Linear variable-path acoustic interferometer
Assay Endpoint: speed of sound (m/s)

INSERT INTO measurements (chem_smiles, assay_endpoint, quantity_unit, obs_value) VALUES
  ('Cc1ccccc1', 'speed of sound', 'm/s', 1220.7),
  ('Cc1ccccc1C', 'speed of sound', 'm/s', 1285.2),
  ('c1ccccc1', 'speed of sound', 'm/s', 1207.8),
  ('Cc1cccc(C)c1', 'speed of sound', 'm/s', 1243),
  ('Cc1ccc(C)cc1', 'speed of sound', 'm/s', 1229.8),
  ('Cc1cc(C)cc(C)c1', 'speed of sound', 'm/s', 1263),
  ('C1COCCO1', 'speed of sound', 'm/s', 1258.6);

---

Each record here notes measured viscosity.
# Applied Conditions: 308.15 K; 101 kPa; Liquid; Capillary tube (Ostwald / Ubbelohde) method
Assay Endpoint: viscosity (mPa·s)

INSERT INTO measurements (chem_smiles, obs_value) VALUES
  ('c1ccccc1', 0.5322),
  ('Cc1cc(C)cc(C)c1', 0.5792),
  ('Cc1ccccc1C', 0.669),
  ('Cc1ccc(C)cc1', 0.544),
  ('C1COCCO1', 1.014),
  ('Cc1cccc(C)c1', 0.5229),
  ('Cc1ccccc1', 0.495);

---

# Applied Conditions: 303.15 K; 101 kPa; Liquid; Capillary tube (Ostwald / Ubbelohde) method
± gives the expanded uncertainty stated by the source.
Examples of compounds with documented viscosity follow.
Assay Endpoint: viscosity

INSERT INTO assay_data (chem_smiles, obs_value) VALUES
  ('C1COCCO1', '1.096 ± 0.023 mPa·s'),
  ('Cc1ccc(C)cc1', '0.5766 ± 0.012 mPa·s'),
  ('Cc1cccc(C)c1', '0.5517 ± 0.012 mPa·s'),
  ('c1ccccc1', '0.5672 ± 0.012 mPa·s'),
  ('Cc1cc(C)cc(C)c1', '0.6188 ± 0.013 mPa·s'),
  ('Cc1ccccc1', '0.5232 ± 0.011 mPa·s'),
  ('Cc1ccccc1C', '0.7132 ± 0.015 mPa·s');
